These data points were gathered from patent US20240398813A1.

Parameter: Activity (ΔRFU normalized by activities of LDD175). Scope: all listed entries.
- experimental_system: hyperactive mutant BKCa channels (hSlo G803D/N806K) stably expressed in AD 293 cells (Homo sapiens, UniProt Q12791, G856D/N859K)
- Construct: expressed in transfected cells
- Sequence (Q12791 whole entry G856D/N859K): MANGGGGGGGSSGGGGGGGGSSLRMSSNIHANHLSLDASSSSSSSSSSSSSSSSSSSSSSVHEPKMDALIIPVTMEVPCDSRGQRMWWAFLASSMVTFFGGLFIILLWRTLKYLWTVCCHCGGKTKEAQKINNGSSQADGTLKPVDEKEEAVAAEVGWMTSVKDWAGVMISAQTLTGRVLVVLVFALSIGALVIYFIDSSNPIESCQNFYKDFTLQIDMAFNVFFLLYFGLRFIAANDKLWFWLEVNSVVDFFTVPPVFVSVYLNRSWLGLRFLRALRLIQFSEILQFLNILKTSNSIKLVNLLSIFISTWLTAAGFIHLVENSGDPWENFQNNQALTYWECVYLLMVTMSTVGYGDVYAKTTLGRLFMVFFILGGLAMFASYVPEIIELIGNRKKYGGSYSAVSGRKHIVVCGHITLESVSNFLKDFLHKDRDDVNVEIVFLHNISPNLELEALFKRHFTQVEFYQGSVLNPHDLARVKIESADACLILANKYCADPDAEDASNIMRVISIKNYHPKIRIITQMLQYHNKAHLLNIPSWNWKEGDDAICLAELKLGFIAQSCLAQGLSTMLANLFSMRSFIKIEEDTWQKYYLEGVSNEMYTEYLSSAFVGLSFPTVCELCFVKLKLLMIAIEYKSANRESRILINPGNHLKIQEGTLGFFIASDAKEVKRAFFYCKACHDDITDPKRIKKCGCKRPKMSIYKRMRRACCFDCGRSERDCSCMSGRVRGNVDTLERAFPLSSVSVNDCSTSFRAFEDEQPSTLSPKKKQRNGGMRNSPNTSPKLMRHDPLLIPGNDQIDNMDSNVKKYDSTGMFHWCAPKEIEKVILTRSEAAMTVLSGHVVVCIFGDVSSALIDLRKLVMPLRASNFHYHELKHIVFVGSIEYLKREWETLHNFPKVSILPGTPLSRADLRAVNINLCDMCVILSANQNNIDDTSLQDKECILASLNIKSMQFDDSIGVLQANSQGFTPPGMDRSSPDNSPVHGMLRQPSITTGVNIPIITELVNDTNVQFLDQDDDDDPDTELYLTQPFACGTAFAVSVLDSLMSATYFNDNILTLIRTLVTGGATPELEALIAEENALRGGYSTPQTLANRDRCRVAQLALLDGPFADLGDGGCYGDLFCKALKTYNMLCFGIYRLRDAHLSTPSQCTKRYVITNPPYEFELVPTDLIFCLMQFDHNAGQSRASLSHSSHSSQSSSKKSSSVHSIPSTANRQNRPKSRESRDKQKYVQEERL
- assay_overview: Cell-based fluorescence assay (FluxOR Potassium Ion Channel Assay) of BKCa channel activation
- recorded_conditions: compounds at 5 μM; n=3; vehicle 0.26
assay_readout: Activity (ΔRFU normalized by activities of LDD175)

CC(C)NC(=O)c1sc(=S)n2c1[nH]c(=O)c1cc(Br)ccc12 0.90
COc1ccc(CNC(=O)c2sc(=S)n3c2[nH]c(=O)c2ccc(Cl)cc23)cc1 0.34
COc1cc2c(=O)[nH]c3c(C(=O)Nc4cc(Cl)ccc4C)sc(=S)n3c2cc1OC 0.64

###

- experimental_system: hyperactive mutant BKCa channels (hSlo G803D/N806K) stably expressed in AD 293 cells (Homo sapiens, UniProt Q12791, G856D/N859K)
- Construct: expressed in transfected cells
- assay_overview: Cell-based fluorescence assay (FluxOR Potassium Ion Channel Assay) of BKCa channel activation
- recorded_conditions: compounds at 5 μM; n=3; vehicle 0.26
Measured Activity (ΔRFU normalized by activities of LDD175) determines class: bottom range (below 0.5), center range (0.5 to below 0.8), top range (0.8 or more)

compound	answer_label
COC(=O)c1ccc2c(=O)[nH]c3c(C(=O)NCc4ccccc4Cl)sc(=S)n3c2c1	top range
Cc1ccc(NC(=O)c2sc(=S)n3c2[nH]c(=O)c2cc(Cl)ccc23)c(C)c1	top range
COc1ccc(OC)c(NC(=O)c2sc(=S)n3c2[nH]c(=O)c2ccc(Cl)cc23)c1	bottom range
COc1cccc(CNC(=O)c2sc(=S)n3c2[nH]c(=O)c2ccc(Cl)cc23)c1	bottom range
CCc1ccc(NC(=O)c2sc(=S)n3c2[nH]c(=O)c2cc(Br)ccc23)cc1	bottom range
COc1cc2c(=O)[nH]c3c(C(=O)Nc4ccccc4)sc(=S)n3c2cc1OC	center range
O=C(NC1CCCC1)c1sc(=S)n2c1[nH]c(=O)c1ccc(Cl)cc12	center range
COc1ccc(OC)c(NC(=O)c2sc(=S)n3c2[nH]c(=O)c2cc(Br)ccc23)c1	center range
CCOc1ccccc1NC(=O)c1sc(=S)n2c1[nH]c(=O)c1cc(Cl)ccc12	bottom range
CCc1ccccc1NC(=O)c1sc(=S)n2c1[nH]c(=O)c1cc3c(cc12)OCO3	center range
Cc1cccc(NC(=O)c2sc(=S)n3c2[nH]c(=O)c2cc(Br)ccc23)c1	top range
O=C(NCC1CCCO1)c1sc(=S)n2c1[nH]c(=O)c1cc(Br)ccc12 (stereo not drawn)	center range
Cc1ccc(NC(=O)c2sc(=S)n3c2[nH]c(=O)c2cc(C)ccc23)c(C)c1	bottom range
O=C(NCC1CCCO1)c1sc(=S)n2c1[nH]c(=O)c1cc(Cl)ccc12 (stereo not drawn)	bottom range
COc1ccccc1NC(=O)c1sc(=S)n2c1[nH]c(=O)c1cc(Cl)ccc12	top range
Cc1ccc2c(c1)c(=O)[nH]c1c(C(=O)Nc3cc(Cl)ccc3C)sc(=S)n12	top range
